- target.system: RNF4 (Homo sapiens, UniProt P78317)
- Sequence (P78317 1-190): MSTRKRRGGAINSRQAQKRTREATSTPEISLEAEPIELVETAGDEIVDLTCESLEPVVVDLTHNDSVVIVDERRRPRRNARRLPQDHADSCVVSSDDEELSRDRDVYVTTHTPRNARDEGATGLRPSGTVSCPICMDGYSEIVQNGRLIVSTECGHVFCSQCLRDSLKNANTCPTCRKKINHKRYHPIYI
- assay.remarks: competitive gel-based ABPP against IA-rhodamine labeling of pure RNF4
- Type: binding
pIC50: −log10 of the molar value.
reported.property: pIC50

{"smiles.string": "Cc1sc2c(c1C)C(c1ccc(Cl)cc1)=N[C@@H](CC(=O)NCCCCOc1ccc(Oc3ccc(N(Cc4ccccc4)C(=O)CCl)cc3)cc1)c1nnc(C)n1-2", "target.system": "RNF4 (Homo sapiens, UniProt P78317)", "reported.property": "pIC50", "result": 6.27}
